tested on: Tov-21-G; experiment: Primary qHTS to identify gynecologic anti-cancer compounds using libraries of approved drugs and bioactive compounds (AID 1345084); conditions: Gynecologic cancer cell panel viability, ATPlite luminescence, 48 h; series mostly up to 57.5 µM; also: nearly all actives have a fitted effect of over 55% in size
Records with an inconclusive call do not appear. Active and inactive are the calls of the source. Calls follow the shape of the dose curve; as a rule, active = well fitted cell-killing curve with a large enough effect; inconclusive = small, poorly fitted or top-dose-only effect, or effect the other way; inactive = flat fitted curve, though single readings scatter.
One label from this list, please: 1 (yes) = active, 0 (no) = inactive

Request: Recorded test call requested for `Oc1ccc2c(c1)C13CCCC[C@H]1[C@@H](C2)N(CC1CCC1)CC3`
Result: 0 (no)

Request: Recorded test call requested for `C[C@]12CC[C@@H](O)C[C@@H]1CC[C@@H]1[C@@H]2CC[C@]2(C)C(=O)[C@@H](Br)C[C@@H]12`
Result: 0 (no)

Request: Recorded test call requested for `C=CCN1CC[C@]23c4c5ccc(O)c4O[C@H]2[C@@H](O)CC[C@@]3(O)[C@H]1C5`
Result: 0 (no)

Request: Recorded test call requested for `CC1(C)C(=O)N(c2ccc(C#N)c(C(F)(F)F)c2)C(=S)N1c1ccc(C(N)=O)c(F)c1`
Result: 0 (no)

Request: Recorded test call requested for CC1=CC2(O)/C=C/C(C)(O)C(O)C(O)/C=C/C(=O)OC23C(=O)NC(CC(C)C)C3C1C (stereo not drawn)
Result: 0 (no)

Request: Recorded test call requested for `Cc1ccc(Cn2nc(C(=O)N[C@@H]3C(C)(C)[C@@H]4CC[C@@]3(C)C4)cc2-c2ccc(Cl)c(C)c2)cc1`
Result: 0 (no)

Request: Recorded test call requested for C[C@]12CC[C@H](O[C@@H]3O[C@H](CO)[C@@H](O)[C@H](O)[C@H]3O)CC1CC[C@@H]1C2CC[C@]2(C)[C@@H](C3=CC(=O)OC3)CC[C@]12O (stereo partly drawn)
Result: 1 (yes)

Request: Recorded test call requested for `CC[C@@]1(O)C(=O)OCc2c1cc1n(c2=O)Cc2cc3c(OC)cccc3nc2-1`
Result: 1 (yes)

====

assay: P-glycoprotein substrates identified in KB-3-1 adenocarcinoma cell line, qHTS therapeutic library screen (AID 1346986); details: KB-3-1 parental cells viability, CellTiter-Glo, 72 h; series mostly up to 93.4 µM; also: nearly all actives have a fitted effect of over 60% in size
Inconclusive results are not listed. Active and inactive are the calls of the source. The call rests on the fitted dose curve; in most records, active means well fitted inhibition curve with a large enough effect; inconclusive means small, poorly fitted or top-dose-only effect; inactive means no such curve, though single readings can be large or run the other way.
One label from this list, please: active, inactive

Request: Recorded test call requested for COC1C=CC23c4cc5c(cc4COC2(O)CN(C)C3C1)OCO5 (stereo not drawn)
Result: inactive

Request: Recorded test call requested for `Cc1cccc(NC(=O)c2ccc(C(F)(F)F)cc2C(=O)O)n1`
Result: inactive

Request: Recorded test call requested for COc1ccc2c3c([nH]c2c1)C(C=C(C)C)N1C(=O)C2CCCN2C(=O)C1C3 (stereo not drawn)
Result: inactive

Request: Recorded test call requested for `C=C(C)[C@@H]1[C@H]2OC(=O)[C@H]1[C@]1(O)C[C@H]3O[C@]34C(=O)O[C@H]2[C@]14C`
Result: inactive

Request: Recorded test call requested for `COC[C@@H]1OC(=O)/C(=C\N(C)CCCN(C)C)C2=C(O)C(=O)C3=C([C@@H](OC(C)=O)C[C@@]4(C)[C@@H]3CC[C@@H]4O)[C@@]21C`
Result: active

Request: Recorded test call requested for `C=CC(C)(C)c1[nH]c2c(CC=C(C)C)cc(CC=C(C)C)cc2c1C[C@@H]1NC(=O)[C@H](C)NC1=O`
Result: inactive

Request: Recorded test call requested for `CC(=O)O[C@H]1CN2CCC1CC2`
Result: inactive

Request: Recorded test call requested for `CN1CCc2cc3c(cc2[C@H]1[C@@H]1OC(=O)c2c1ccc1c2OCO1)OCO3`
Result: inactive
